OD450 values, listed per item
molecular target: T1, human MSLN-FL-his protein (human, UniProt Q13421 296-580); assay: ELISA on coated antigen, antibody 0.1 nM
T1 construct: Self-made in HEK293E cells; also called human MSLN full-length protein; hMSLN-FL-his; not shown: His tag
T1 sequence (Q13421 other isoform, or with tags, fused parts or gaps): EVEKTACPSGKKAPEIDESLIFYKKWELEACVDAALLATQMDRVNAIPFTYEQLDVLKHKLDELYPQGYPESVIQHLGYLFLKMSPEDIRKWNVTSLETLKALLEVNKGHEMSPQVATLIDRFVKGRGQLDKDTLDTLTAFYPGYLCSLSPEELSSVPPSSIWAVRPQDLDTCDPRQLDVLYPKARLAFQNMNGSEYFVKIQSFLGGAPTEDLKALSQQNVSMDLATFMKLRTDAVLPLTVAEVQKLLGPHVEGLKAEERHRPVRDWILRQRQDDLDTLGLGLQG

# BINDER, UNIT ANNOTATION, OD450
measured = [
    ("S009-F3.80.22 (antibody, human IgG1, kappa, V domains shown, Human-murine chimeric antibody: murine VH/VL on human IgG1 heavy and kappa light constant regions) VH: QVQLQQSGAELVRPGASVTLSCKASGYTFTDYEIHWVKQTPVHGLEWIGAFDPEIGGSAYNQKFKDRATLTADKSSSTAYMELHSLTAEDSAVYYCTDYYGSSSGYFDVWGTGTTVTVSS VL: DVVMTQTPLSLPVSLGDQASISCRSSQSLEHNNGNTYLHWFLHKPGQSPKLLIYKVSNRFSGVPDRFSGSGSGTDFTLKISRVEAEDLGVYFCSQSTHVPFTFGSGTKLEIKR", "OD450", 1.71),
    ("S009-F3.74.20 (antibody, human IgG1, kappa, V domains shown, Human-murine chimeric antibody: murine VH/VL on human IgG1 heavy and kappa light constant regions) VH: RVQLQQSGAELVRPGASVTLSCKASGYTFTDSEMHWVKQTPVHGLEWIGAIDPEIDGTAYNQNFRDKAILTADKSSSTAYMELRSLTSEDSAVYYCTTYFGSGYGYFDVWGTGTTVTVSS VL: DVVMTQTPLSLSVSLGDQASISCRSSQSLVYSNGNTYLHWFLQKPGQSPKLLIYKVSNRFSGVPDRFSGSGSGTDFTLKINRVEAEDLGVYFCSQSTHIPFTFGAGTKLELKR", "OD450", 1.59),
    ("S009-F3.7.3 (antibody, human IgG1, kappa, V domains shown, Human-murine chimeric antibody: murine VH/VL on human IgG1 heavy and kappa light constant regions) VH: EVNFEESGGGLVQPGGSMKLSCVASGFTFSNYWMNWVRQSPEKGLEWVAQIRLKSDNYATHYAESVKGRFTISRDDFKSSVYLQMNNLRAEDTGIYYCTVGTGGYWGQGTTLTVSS VL: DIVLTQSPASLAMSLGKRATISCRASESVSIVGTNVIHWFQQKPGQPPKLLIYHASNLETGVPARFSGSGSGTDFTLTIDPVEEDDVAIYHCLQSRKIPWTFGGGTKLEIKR", "OD450", 0.07),
]

Values compiled from patent US20250250357A1.
